Test system: RXF 393
Protocol: NCI tumour cell line growth inhibition, 48 h
Activity calls are given as the source filed them. Rule as the data show it: active = GI50 up to about 1.1 µM and inactive = higher.
Outcomes you can answer with include only these: active, inactive

Consider the worked cases shown below.
O=C1c2cccc3c2C(=O)c2c(cccc21)OCCOCCOCCOCCO3 | inactive
O=CC1=C(C(=O)OC(c2ccccc2)c2ccccc2)N2C(=O)[C@@H](NC(=O)Cc3cccs3)[C@H]2SC1 | inactive
COc1ccc(N2C(=O)C3ON(C(C(N)=O)c4ccccc4)C(c4cc5ccccc5c5ccccc45)C3C2=O)cc1 (stereo not given) | inactive
COc1ccc2nc3ccc(OC)cc3c(SCCCl)c2c1 | inactive
CC(C)(C)OC(=O)NC(Cc1ccc(OCc2ccccc2)cn1)C(=O)NCc1ccccc1 (stereo not given) | inactive

// query Call for entry COC(=O)C(=O)C(CC(=O)Nc1cc(Cl)ccc1Cl)C(=O)OC (stereo not given) :
// result inactive
